- Tested on: Madurella mycetomatis MM55
- method.summary: percent growth relative to solvent control; higher = less inhibition, active = 20 or less
- experimental.parameters: 100 µM; 7 days
// reported percent growth per item
property.name: percent growth (%)

- compound: "COc1ccc(OC)c(NCc2ccc3nc(N)nc(N)c3c2Cl)c1"
  unit.string: "%"
  experimental.value: -0.467
- compound: "O=C(c1ccc(NCCO)cc1)C1C[C@H]1c1ccc(Cl)cc1 (stereo not given in full)"
  unit.string: "%"
  experimental.value: 4.06
- compound: "O=C(NC1CC1)c1ccc(N2CCC(Cc3ccccc3)CC2)nc1"
  unit.string: "%"
  experimental.value: 104
- compound: "CCOC(=O)c1cc(-c2csc(Nc3c(C)cc(C)cc3C)n2)on1"
  unit.string: "%"
  experimental.value: 92.2
- compound: "COc1cccn2c(C(=O)N3CCCCC3)c(C(F)(F)F)nc12"
  unit.string: "%"
  experimental.value: 85.7
- compound: "N#Cc1nc(-c2ccccc2F)oc1NCCc1ccccc1"
  unit.string: "%"
  experimental.value: 56.7
- compound: "C[C@H]1c2cccc(O)c2C(=O)C2=C(O)[C@]3(O)C(=O)C(C(N)=O)=C(O)[C@@H](N(C)C)[C@@H]3[C@@H](O)[C@@H]21"
  unit.string: "%"
  experimental.value: 121
- compound: "CC(C(=O)N1CCCC1)N1CCN(S(=O)(=O)c2ccc(C(C)(C)C)cc2)CC1 (stereo not given)"
  unit.string: "%"
  experimental.value: 89.9
- compound: "COc1cc(OC)cc(C(=O)NCC2Cc3cc(Cl)cc(-c4ccncc4)c3O2)c1 (stereo not given)"
  unit.string: "%"
  experimental.value: 55.9
- compound: "CC(c1cc(Cl)cc(Cl)c1)N(C)c1ncc2c(N)nc(N)nc2n1 (stereo not given)"
  unit.string: "%"
  experimental.value: 5.31

---

// reported IC90 per item
- Test system: Madurella mycetomatis MM55
- method.summary: IC90; higher = less potent
- experimental.parameters: 7 days

- compound: "CCCc1ccc(S(=O)(=O)Nc2ccc(CN3CCN(CC4CC4)CC3)cc2)cc1"
  IC90 / µM: 91.8
- compound: "O=C(Nc1cccc(Cl)c1)c1cnc(N2CCN(c3ccncc3)CC2)c(Cl)c1"
  IC90 / µM: 19.6
- compound: "O=C(c1ccc(F)cc1)N(CCNc1ccccc1)c1ccccc1"
  IC90 / µM: 100
- compound: "CCc1ccc(S(=O)(=O)Nc2cc(CN3CCN(CCC(C)C)CC3)ccc2C)cc1"
  IC90 / µM: 91.5
- compound: "Cc1[nH]c2ccccc2c1C(c1cccs1)N1CCN(C)CC1 (stereo unspecified)"
  IC90 / µM: 47
- compound: "COc1cccc(-n2nnnc2S(C)(=O)=O)c1"
  IC90 / µM: 92.6
- compound: "O=C(Nc1nnc(-c2ccc(Cl)cc2)o1)c1cccc(C(F)(F)F)c1"
  IC90 / µM: 39.2
- compound: "CCCn1c(NC(=O)c2ccc3ccccc3n2)nc2ccccc21"
  IC90 / µM: 9.85
- compound: "CN1CCC(c2cc(-c3ccncc3)c(-c3ccc(F)cc3)[nH]2)CC1"
  IC90 / µM: 91.6
- compound: "O=C(Nc1nc(-c2ccccn2)cs1)c1cncn1-c1ccccc1"
  IC90 / µM: 40.8
- compound: "c1csc(-c2cnc3sc(NCC4CCOCC4)nn23)c1"
  IC90 / µM: 95.5
- compound: "Cc1ccccc1CN1CCC(O)(c2ccc(Cl)c(C(F)(F)F)c2)CC1"
  IC90 / µM: 56.3
- compound: "CC(C)NCC(=O)Nc1cccc(C(=O)Nc2cccc(C(F)(F)F)c2)c1"
  IC90 / µM: 93.7
- compound: "C[C@@H]1[C@H](O)[C@@H](C)/C=C/C=C/C=C/C=C/C=C/C=C/C=C/[C@H](O[C@@H]2O[C@H](C)[C@@H](O)[C@H](N)[C@@H]2O)C[C@@H]2O[C@](O)(C[C@@H](O)C[C@@H](O)[C@H](O)CC[C@@H](O)C[C@@H](O)CC(=O)O[C@H]1C)C[C@H](O)[C@H]2C(=O)O"
  IC90 / µM: 20.1
- compound: "Cc1cccc(-c2nc(Nc3ccncn3)c3sccc3n2)n1"
  IC90 / µM: 88.1
- compound: "c1ccc(Oc2ccc(-c3cc(C4CCOCC4)[nH]n3)cc2)cc1"
  IC90 / µM: 57
- compound: "Nc1nc2ccc(-c3cncc(Oc4ccc(F)cc4)c3)cc2[nH]1"
  IC90 / µM: 85.8
- compound: "O[C@@H](c1cc(C(F)(F)F)nc2c(C(F)(F)F)cccc12)[C@H]1CCCCN1"
  IC90 / µM: 71.5
- compound: "CC(C)n1nc(-c2cc3c(Cl)cccc3[nH]2)c2c(N)ncnc21"
  IC90 / µM: 89
- compound: "Cc1nc(-c2ccccn2)nc(N(C)CCc2ccccc2)c1Cl"
  IC90 / µM: 17.8
- compound: "O=C(C1CCN(c2cc(-n3cccc3)ncn2)CC1)N1CCc2ccccc2C1"
  IC90 / µM: 91.5
- compound: "CCc1c(C)nc(-n2nc(C)cc2NC(=O)c2ccccc2SC)[nH]c1=O"
  IC90 / µM: 15.1
- compound: "COc1cc2ncnc(NC3CCN(Cc4ccccc4)CC3)c2cc1OC"
  IC90 / µM: 92.3
- compound: "C[C@H](c1ccc2c(c1)CCCC2)N(C)c1ncc2c(N)nc(N)nc2n1"
  IC90 / µM: 91
- compound: "CC(C)=CCC/C(C)=C\\CNCCNC1C2CC3CC(C2)CC1C3 (stereo unspecified)"
  IC90 / µM: 19.8
- compound: "CNCCC(Oc1ccc(C(F)(F)F)cc1)c1ccccc1 (stereo unspecified)"
  IC90 / µM: 18.6
- compound: "c1ccc2c(c1)CN(CC1CC1)CC1(CCN(Cc3c[nH]c4cnccc34)CC1)O2"
  IC90 / µM: 96
- compound: "N#CCN(CCCCN1CCN(c2ccc(F)cc2)CC1)C(=O)OCc1ccccc1"
  IC90 / µM: 93.7
- compound: "Cc1ncc(-c2ccnc(Nc3ccc(S(C)(=O)=O)cc3)n2)n1C(C)C"
  IC90 / µM: 96.9
- compound: "NCCN(C(=O)c1ccc(Cl)cc1Cl)c1ccc(OCc2ccc(Cl)cc2)cc1"
  IC90 / µM: 17.9
- compound: "O=C(Nc1ccc(N2CCNCC2)cc1)c1ccn2ncc(-c3cccc(Cl)c3)c2n1"
  IC90 / µM: 4.9

All figures here come from the supplement of paper PMC5940239.
